// data source = the supplement of paper PMC11780869

For each record, write down the corresponding cleaved RNA product abundance.
System: Bacillus subtilis
Test: cleaved RNA product abundance (RNA/gDNA barcode ratio) relative to median wild-type variant (ratio to wild type); higher = more accumulation of the downstream cleavage product
Conditions: experiment (reporter, strain, medium): exp 2b: truncated aprE reporter, strain BJT200; cleavage site: cggR-gapA (positions -7 to +36 mutated)
One number for each entry.

Use the examples below as a reference point.
| sequenceData | cleaved RNA product abundance |
| --- | --- |
| ACAGACGAAGGAGCCGCAAATAAGTTATAAAGGGATGAATAATCCCTCAATATAAATATCTCTCACTTATTTAAA | 0.337 |
| ACAGACGAAGGAGCCGCAAAGAAGTTATTAAGGGATGACTAATCCCACAATATAAATATCTCTCACTTATTTAAA | 0.157 |
| ACAGACGAAGGAGCCGCAAAGAAGTTCTTAAGGGATGAATAATCCCACAATATAAATATCTCTCACTTATTTAAA | 0.119 |
| ACAGACGAAGGAGCCGCAAAGAAGTTAATAAGGGATGAATCATCCCTCAATATAAATATCTCTCACTTATTTAAA | 0.188 |
| ACAGACGAAGGAGCCGCAAAGAAGATATTAAGGGATGAATAATCCCTCAATATAAATATCTCTCACTTATTTAAA | 0.68 |

# return cleaved RNA product abundance for each item in the list
1. ACAGACGAAGGAGCCGCAAAGAAGTTATTAAGGGATAAATAATCCCACAATATAAATATCTCTCACTTATTTAAA
2. ACAGACGAAGGAGCCGCAAAGAAGTTATTAAGAGATGAATAATCCATCAATATAAATATCTCTCACTTATTTAAA
3. ACAGACGAAGGAGCCGCAAAAAAGTTATTAAGGGATGAATAATCCATCAATATAAATATCTCTCACTTATTTAAA
4. ACAGACGAAGGAGCCGCAAAGAAGTTATTAAGAAATGAATAATCCCTCAATATAAATATCTCTCACTTATTTAAA
5. ACAGACGAAGGAGCCGCTAAGAAGTTATTAAGGGATGAATAATCCTTCAATATAAATATCTCTCACTTATTTAAA
6. ACAGACGAAGGAGCCGCAAAGAAGTAATTAAGGGATGAAAAATCCCTCAATATAAATATCTCTCACTTATTTAAA
7. ACAGACGAAGGAGCCGCAAAGAAGATATTAATGGATGAATAATCCCTCAATATAAATATCTCTCACTTATTTAAA

output:
1: 0.253; 2: 0.142; 3: 0.17; 4: 0.0992; 5: 0.434; 6: 0.163; 7: 0.132

# return cleaved RNA product abundance for each item in the list
1. ACAGACGAAGGAGCCGCAAAGAAGTTATTAAGGGATGAATAATCCCTCAATATTAATATCTCTCACTTATTTAAA
2. ACAGACGAAGGAGCCGCAAAGAAGTTATTAAGGGATGAATAATCACTCACTATAAATATCTCTCACTTATTTAAA
3. ACAGACGAAGGAGCCGCAAAGAAGTTATTAACGGTTGAATAATCCCTCAATATAAATATCTCTCACTTATTTAAA

output:
[0.169, 0.0967, 0.0654]
